These data points were gathered from ChEMBL document CHEMBL1153615.

- Tested on: AGS
- experiment: Cytotoxicity against human AGS cells after 3 days by MTT assay
- Assay type: functional, cell-based
- test_context: 72 h
Field: pIC50. Provide a value for each of the molecules that follow.
# pIC50: negative log10 of molar concentration; output just the value

Problem: Consider the molecule "COC(=O)N1CCc2c3n(c4ccccc24)[C@@H](O)CCC[C@@H]31" . State its measured pIC50.
Solution: 4.77

Problem: Kindly indicate its recorded pIC50. Item: "COC(=O)N1CCc2c3n(c4cc(Br)ccc24)[C@@H](O)CCC[C@@H]31"
Solution: 4.64

Problem: Please look at this molecule and report its pIC50: "COC(=O)N1CCc2c([nH]c3cc(Br)ccc23)[C@@H]1CCCC=O"
Solution: 4.67

Problem: Read the entry "C=CCCC[C@@H]1NCCc2c1[nH]c1cc(Br)ccc21" and write its reported pIC50.
Solution: 5.06

Problem: Return the recorded pIC50 value; entry: C=CCCCC1c2[nH]c3cc(Br)ccc3c2CCN1C (configuration not stated)
Solution: 4.16

Problem: Give the reported pIC50 for this molecule. "C=CCCCC1=NCCc2c1[nH]c1ccccc21"
Solution: 4.39

Problem: Answer with the recorded pIC50 of "C=CCCC[C@@H]1NCCc2c1[nH]c1ccccc21" only.
Solution: 4.84

Problem: Quote pIC50 reported for "C=CCCCC1=NCCc2c1[nH]c1cc(Br)ccc21" please.
Solution: 4.57

Problem: Write down pIC50 measured for item C=CCCCC1c2[nH]c3ccccc3c2CCN1C (configuration not stated)
Solution: 4.46

Problem: Specify measured pIC50 for "CN1CCc2c3n(c4cc(Br)ccc24)[C@@H](O)CCC[C@@H]31" .
Solution: 4.51

Problem: Dear colleague, please send me the reported pIC50 for COC(=O)N1CCc2c([nH]c3ccccc23)[C@@H]1CCCC(O)CO (some centres not stated) when you can.
Solution: 4.20

Problem: Please supply the value of reported pIC50 for the item "CN1CCc2c3n(c4ccccc24)C=CCC[C@@H]31"
Solution: 4.38

Problem: In one line, give reported pIC50 of the entry "Brc1ccc2c3c([nH]c2c1)[C@@H]1CCCCN1CC3" .
Solution: 4.19

###

- Test system: J82
- experiment: Cytotoxicity against human J82 cells after 3 days by MTT assay
- Assay type: functional, cell-based
- test_context: J82, 72 h
Kindly supply the reported IC50 values for the records listed here.
Expressed in µM, but write only the number.

Problem: State its IC50 for this molecule: "C=CCCC[C@@H]1NCCc2c1[nH]c1cc(Br)ccc21"
Solution: 18.9

Problem: Look up and state reported IC50 for C=CCCCC1c2[nH]c3ccccc3c2CCN1C (centres undefined)
Solution: 76.4

Problem: Quick one: give measured IC50 for "CN1CCc2c3n(c4ccccc24)C=CCC[C@@H]31"
Solution: 29.5

Problem: Tell us which IC50 value is on record for "CN1CCc2c3n(c4cc(Br)ccc24)C=CCC[C@@H]31"
Solution: 45.5

Problem: Identify the reported IC50 for the following entry. C=CCCCC1c2[nH]c3cc(Br)ccc3c2CCN1C (centres undefined)
Solution: 78.8

Problem: Specify IC50 for COc1cc([C@@H]2c3cc4c(cc3[C@@H](O[C@@H]3O[C@@H]5CO[C@@H](C)O[C@H]5[C@H](O)[C@H]3O)[C@H]3COC(=O)[C@H]23)OCO4)cc(OC)c1O [ETOPOSIDE] and stop.
Solution: 2.5

Problem: State its IC50 for this molecule: "C=CCCCC1=NCCc2c1[nH]c1cc(Br)ccc21"
Solution: 39.3
